Answer each item with its documented Dissociation pH (pH at elution peak top).
- Tested on: aTNF-Fab
- Assay Overview: Acid dissociation pH by pH linear gradient chromatography on aTNF-Fab-immobilized column
- Assay type: binding
- Condition: pH linear gradient from pH 5.5 to pH 2.5
Enter a number only.

Name the recorded Dissociation pH (pH at elution peak top) of the substance listed here: GB1#-T17A.1d: modified SpG-β1# single domain, SEQ ID NO: 1 with Thr at 17th position substituted by Ala; amino acid SEQ ID NO: 17 (TTYKLILNGKTLTGYTAAIAADAATAEIVLKQFANDNGIDGEWTYDDATKTFTVTE; GB1#-mutant) 2.85

Name the recorded Dissociation pH (pH at elution peak top) of the substance listed here: GB1#-T17V.1d: modified SpG-β1# single domain with mutation T17V; amino acid SEQ ID NO: 18 (TTYKLILNGKTLTGYTVAIAADAATAEIVLKQFANDNGIDGEWTYDDATKTFTVTE; GB1#-mutant) 3.00

Name the recorded Dissociation pH (pH at elution peak top) of the substance listed here: GB1#-Cont.1d: modified SpG-β1 of SEQ ID NO: 1 with improved binding capability to Fab; peptide before substitution mutation, Comparative example (TTYKLILNGKTLTGYTTAIAADAATAEIVLKQFANDNGIDGEWTYDDATKTFTVTE; Immunoglobulin-binding peptide) [reference compound] 2.60

Name the recorded Dissociation pH (pH at elution peak top) of the substance listed here: GB1#-D36V.1d: modified SpG-β1# single domain with mutation D36V; amino acid SEQ ID NO: 19 (TTYKLILNGKTLTGYTTAIAADAATAEIVLKQFANVNGIDGEWTYDDATKTFTVTE; GB1#-mutant) 3.40
